biological target: Cellular tumor antigen p53 (Homo sapiens) (UniProt P04637); test: ATG_p53_CIS: Attagene CIS-FACTORIAL HepG2 Assay for human p53 Transcription Factor (AID 2282994); conditions: HepG2 p53 cis-element reporter, Attagene mRNA; actives raise or lower the signal
Sequence (P04637 whole entry, looked up): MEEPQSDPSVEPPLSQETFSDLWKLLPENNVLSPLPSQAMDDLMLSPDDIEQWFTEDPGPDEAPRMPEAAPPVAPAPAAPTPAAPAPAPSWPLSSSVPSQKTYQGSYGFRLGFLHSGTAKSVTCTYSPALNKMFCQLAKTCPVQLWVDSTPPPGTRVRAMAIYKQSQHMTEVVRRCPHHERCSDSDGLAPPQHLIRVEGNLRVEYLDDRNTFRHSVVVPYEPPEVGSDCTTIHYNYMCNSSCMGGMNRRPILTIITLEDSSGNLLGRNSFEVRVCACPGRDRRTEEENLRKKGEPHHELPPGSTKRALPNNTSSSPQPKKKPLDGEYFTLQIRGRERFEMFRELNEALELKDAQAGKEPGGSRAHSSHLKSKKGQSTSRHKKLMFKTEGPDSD
The source made the active and inactive calls. How the source made its calls: active means hit-call score of the fitted dose curve at least 0.9, where 1 is the maximum; inactive means score below 0.9.
Classes used: active, inactive

Structure as smiles: C=CC(C)(C)C
Assigned class: inactive

Structure as smiles: O=C(O)Cc1c(Cl)ccc(Cl)c1Cl
Assigned class: inactive

Structure as smiles: CCO[Si](C)(OCC)OCC
Assigned class: inactive

Structure as smiles: C=COCCCC
Assigned class: inactive

Structure as smiles: C1CN(SSN2CCOCC2)CCO1
Assigned class: inactive

Structure as smiles: CCCCCCCCCCCCCCCC[N+](C)(C)CC
Assigned class: active
